# growth inhibition per entry
# procedure-details: NCI Yeast Anticancer Drug Screen. Data for the rad50EPP+ strain (AID 151);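 further: 0% = growth of vehicle-treated control cultures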
# experimental-parameters: S. cerevisiae rad50 mutant strain, at 3.7 µM, stronger effect = higher value
Compounds without any hit were thinned out: in the full panel of roughly 79,000, 15% have a hit.
Give the value, in units of %, as a plain number.

{"columns": ["compound", "growth inhibition [%]"],
 "data": [
  ["COC(=O)CSSCc1ccc([N+](=O)[O-])cc1", 13],
  ["CN(C)CCn1c2c3ccccc3ccc2c2oc(=O)c3ccccc3c21", 54],
  ["COc1ccc2nc3c([N+](=O)[O-])ccc(NCCN(C)C)c3c(NCCN(C)C)c2c1", 3],
  ["COc1ccc2c(c1)C(=O)c1ccccc1C2", 10],
  ["COc1ccc(NC(=S)N/N=C(\\c2ccccc2)c2ccccn2)cc1", 4],
  ["CCCCCCCCCCC(=O)Cl", 22],
  ["CCC(C(=O)O)C1=C(c2ccccc2)CCc2ccccc21 (configuration not stated)", 2],
  ["CC(=O)Nc1ccc2c(c1)C(=Nc1ccc(C(=O)O)cc1)c1ccccc1-2", 7],
  ["COc1ccc(/C=C2\\SC(=S)N(/C=C/c3nc4ccccc4[nH]c3=O)C2=O)cc1OC", 3],
  ["S=C(S)NN1CCOCC1", 80]
]}

Summary for this compound, CCCC/C=C/C(CC)(C(=O)OCC)C(=O)OCC : growth inhibition is 1

The reported growth inhibition of the compound O=Nc1c(NO)ccc2nn(-c3ccccc3)nc12 was 33

For this compound ( [O-][n+]1c2ccc(O)cc2nc2ccc(Br)cc21 ), measured growth inhibition is 20

Lab note: measured growth inhibition of S=c1[nH]nc(Nc2ccc(Cl)cc2)s1 was -10

Short answer for COC(=O)C1=C(C)NC(C)=C(C(=O)OC)C1c1cccc(/[N+]([O-])=C/c2ccccc2)c1 : growth inhibition was -3

---

# procedure-details: NCI Yeast Anticancer Drug Screen. Data for the rad50 strain (AID 155);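 further: 0% = growth of vehicle-only cultures of the same strain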
# experimental-parameters: S. cerevisiae rad50 strain growth inhibition; at 50.0 µM
The panel holds about 79,000 compounds, 15% with a hit somewhere; the sample as a whole holds those more often. Activity calls are given as the source filed them. No stated cut-off is given here; in the data, active means growth inhibition above about 70%; inactive means the rest.
Respond using exactly one of the listed classes: 1 (yes) for active, 0 (no) for inactive

Below, 8 molecules whose answers are already recorded.
{"columns": ["molecule", "group-label"],
 "data": [
  ["CSC(=S)N/N=C(\\C)c1cccc(C)n1", "1 (yes)"],
  ["CC(=O)OCCOCNC(=S)N/N=C(\\C)c1cnccn1", "1 (yes)"],
  ["O=C(Nc1ccccc1)C(=O)C(C(=O)c1ccccc1)C(c1ccccc1)c1ccccc1 (centres undefined)", "1 (yes)"],
  ["O=Cc1cccc2ccc3ccccc3c12", "1 (yes)"],
  ["CC(C)=CC(=O)O[C@@H]1CC(C)(C)CC2C3=CCC4[C@]56CC[C@](O)(OC5)C(C)(C)C6CC[C@@]4(C)C3(C)CC[C@]21C(=O)O (some centres undefined)", "1 (yes)"],
  ["N#CN=Nc1cc(Cl)c(N=NC#N)cc1Cl", "1 (yes)"],
  ["Cc1ccc(N)c(S)c1", "0 (no)"],
  ["O=C(/C=C\\c1ccc(Cl)cc1Cl)c1cccs1", "0 (no)"]
]}

Turning now to a further record.
Hello, I am checking results. What call was entered for Cc1ccc2[nH]c3c(C)c4cc[n+](C)cc4c(C)c3c2c1 ? 1 (yes)
